- Test system: MDA-MB-435
- experiment notes: NCI tumour cell line growth inhibition, 48 h
Active and inactive are the calls of the source. Rule as the data show it: active = GI50 up to about 1.1 µM and inactive = higher.
reported endpoint: GI50

molecule	study target	reported measurement
CCOC(=O)C(NCc1cccc(C(F)(F)F)c1)(NC(=O)c1ccccc1)C(F)(F)F (centres undefined)	MDA-MB-435	24.3 µM (inactive)
CC1(C)CC(=O)c2c(nc3c(ccc4ccccc43)c2-c2ccc(NC(=O)CCCCC(=O)Nc3ccc(-c4c5c(nc6c4ccc4ccccc46)CC(C)(C)CC5=O)cc3)cc2)C1	MDA-MB-435	26.2 µM (inactive)
COC(=O)CCC(=O)c1ccc2c(c1)CC1(Cc3ccccc3C1)C2	MDA-MB-435	64 µM (inactive)
NC(=O)c1ccc(C(=O)Nc2ccc([As](=O)(O)O)cc2)cc1	MDA-MB-435	> 100 µM (inactive)
CCOC(=O)c1c(-c2ccccc2)oc(=O)c(Cc2cccc3cccnc23)c1-c1ccccc1	MDA-MB-435	> 10 µM (inactive)
OC(CC(O)(C(F)(F)F)C(F)(F)F)C(O)c1ccco1 (centres undefined)	MDA-MB-435	> 10 µM (inactive)
CNC(=O)C1(N)c2ccccc2C=Cc2ccccc21	MDA-MB-435	> 100 µM (inactive)
Cn1c2ccccc2c2c3c(c4c5ccccc5n(C)c4c21)C(=O)NC3=O	MDA-MB-435	> 42.7 µM (inactive)
CCn1c(-c2ccc(OC)cc2)nc2c1C(=O)c1ccccc1C2=O	MDA-MB-435	> 100 µM (inactive)
CC(=O)NC1C(OCc2ccccc2)OC(CO)C(O)C1OC(C)C(=O)NC(C(=O)NC(CCC(=O)NCCCC(=O)Nc1ccc2c(c1)CN1C(=O)c3ccccc3C1=N2)C(N)=O)C(C)C (centres undefined)	MDA-MB-435	> 100 µM (inactive)
Cc1cn(S(=O)(=O)c2ccccc2)c2c(OCc3ccccc3)cc([N+](=O)[O-])cc12	MDA-MB-435	3.92 µM (inactive)
O=C1NC(=O)C(c2c[nH]c3ccccc23)=C1c1cn(C(c2ccccc2)(c2ccccc2)c2ccccc2)cn1	MDA-MB-435	3.92 µM (inactive)
CC1(C)OP(=O)(O)CC1=O	MDA-MB-435	> 100 µM (inactive)
CN(C)CCNC(=O)Cn1cnc2cccc([N+](=O)[O-])c2c1=O	MDA-MB-435	> 100 µM (inactive)
CC(C)=C=CC(C)(C)NS(=O)(=O)NC(C)(C)C=C=C(C)C	MDA-MB-435	> 100 µM (inactive)
O=[N+]([O-])c1ccc(OP(=O)(O)OCC2OC(CP(=O)(O)O)C(O)C2O)cc1 (centres undefined)	MDA-MB-435	> 100 µM (inactive)
COC(=O)C(Cc1ccccc1)NC(=O)c1ccc(CNC(=S)NCc2cccc(CNC(=S)NCc3ccccc3)c2)cc1 (centres undefined)	MDA-MB-435	> 34.2 µM (inactive)
Cc1c2ncccc2c(C)c2c1[nH]c1ccc(O)cc12	MDA-MB-435	7.64 µM (inactive)
CC1=NN(c2nc(N)nc(/C(C#N)=C/c3ccc([N+](=O)[O-])o3)n2)C(C)(C)C1	MDA-MB-435	2.39 µM (inactive)
Cn1c(N/N=C/c2ccccc2)nc(-c2ccc3c(c2)OCO3)c(C#N)c1=O	MDA-MB-435	73.8 µM (inactive)
Nc1nc(=O)c(/N=N/c2ccccc2)c(C(=O)O)[nH]1	MDA-MB-435	> 100 µM (inactive)
O=C(O)C(CCc1ccccc1)N1C(=O)c2ccccc2C1=O (centres undefined)	MDA-MB-435	> 100 µM (inactive)
O=Cc1[nH]c(=O)[nH]c(=O)c1CCl	MDA-MB-435	> 100 µM (inactive)
C=CCc1cccc2cc(C(=O)Nc3ccccc3)c(=N)oc12	MDA-MB-435	27.9 µM (inactive)
C=C(CN1CC2C[C@](C(=O)OC)(c3cc4ccccc4[nH]3)C1C(OC)C2OC)S(=O)(=O)c1ccccc1 (some centres undefined)	MDA-MB-435	2.29 µM (inactive)
CCC/C(Cl)=N\OC(=O)Nc1ccc(F)c([N+](=O)[O-])c1	MDA-MB-435	16.2 µM (inactive)
O=C(/C=C/c1ccc(O)c(O)c1)NC(COC(=O)/C=C/c1ccc(O)c(O)c1)C(=O)O (centres undefined)	MDA-MB-435	> 100 µM (inactive)
O=c1c2ccccc2nc(-c2ccccc2)n1O	MDA-MB-435	> 100 µM (inactive)
COC(=O)[C@@H]1COC(=O)N1	MDA-MB-435	> 100 µM (inactive)

---

- Tested on: NCI-H23
- experiment notes: NCI tumour cell line growth inhibition, 48 h
Activity calls are given as the source filed them. No stated cut-off is given here; in the data, active = GI50 up to about 1.1 µM and inactive = higher.
reported endpoint: GI50

compound	reported measurement
Cc1cc(-c2nc3ccc(F)cc3s2)ccc1N	> 100 µM (inactive)
CC1(C)CC(=O)c2c(nc3c4c([nH]c(-c5ccc(Br)cc5)c24)CC(C)(C)C3)C1	52.1 µM (inactive)
OC(CC(O)(C(F)(F)F)C(F)(F)F)C(O)c1ccco1 (stereo not given)	> 10 µM (inactive)
CCOC(=O)c1sc(N/N=C2\NC(=O)/C(=C/c3ccc([N+](=O)[O-])cc3)S2)nc1C	24.4 µM (inactive)
C#C[C@]1(O)CC[C@H]2[C@@H]3CCC4=C/C(=N/CCOC(=O)c5cccc6cc7ccccc7nc56)CC[C@@H]4[C@H]3CC[C@@]21C	19.9 µM (inactive)
CCc1cccc(C(C)C)c1NC(=O)C(=O)CC(=O)c1c(C)[n+]([O-])c2ccccc2[n+]1[O-]	> 100 µM (inactive)
COC(=O)C1(Cc2ccccc2C)Cc2ccc(C)cc2C1=O (stereo not given)	26.4 µM (inactive)
COC(=O)[C@@H]1CCCCC[C@H]2C(CO)=C(C)C(=O)C12 (stereo not given in full)	> 100 µM (inactive)
C1=CC2(C=CC13O[C@H](C1CCCCC1)[C@@H](C1CCCCC1)O3)O[C@H](C1CCCCC1)[C@@H](C1CCCCC1)O2	> 50 µM (inactive)
Cc1c2ncccc2c(C)c2c1[nH]c1ccc(O)cc12	6.58 µM (inactive)
CN(C(=O)c1ccco1)C(=S)N1CCN(c2ccccc2)CC1	> 100 µM (inactive)
COC1OC(=O)[C@H]2O[N+]([O-])=C(C)[C@@H]12 (stereo not given in full)	> 100 µM (inactive)
CCOC(=O)c1s/c(=N\Nc2nc3ccccc3cc2C2OCCO2)n(Cc2ccccc2)c1C	> 100 µM (inactive)
CC1=NN(c2nc(N)nc(/C(C#N)=C/c3ccc([N+](=O)[O-])o3)n2)C(C)(C)C1	3.45 µM (inactive)
C=C(Cl)/C(=C\Cl)CCC(Cl)C(C)C (stereo not given)	> 100 µM (inactive)

---

- Tested on: SR
- experiment notes: NCI tumour cell line growth inhibition, 48 h
Calls of active or inactive are those of the source. No stated cut-off is given here; in the data, active = GI50 up to about 1.1 µM and inactive = higher. Residues, ends and D or L forms follow the SMILES beside them.
Outcomes: active, inactive

molecule	label
CN(C)CCS/C(=N\c1ccccc1)n1cccc1	inactive
O=C(/C=C/c1ccc(O)c(O)c1)NC(COC(=O)/C=C/c1ccc(O)c(O)c1)C(=O)O (stereo not drawn)	inactive
CC(C)O/C=C1\C(=O)C2(SCCS2)[C@H]2CCCC[C@@H]12	inactive
C[N+](C)(C)CC1CCC/C1=N/O (stereo not drawn)	inactive
COc1cccc2nc3c(C(=O)NCCN(C)C)cccc3cc12	active
O=c1[nH]nc(-c2ccccc2)n1/N=C/c1ccc([N+](=O)[O-])o1	active
Cc1nc2ccc(C(F)(F)F)cc2nc1NCc1ccc(Cl)c(Cl)c1	inactive
C/C(CN1C(=O)c2ccccc2C1=O)=N\NS(=O)(=O)c1cccc(C(=O)O)c1	inactive
OC(CC(CC(O)(C(F)(F)F)C(F)(F)F)=NN=C(CC(O)(C(F)(F)F)C(F)(F)F)CC(O)(C(F)(F)F)C(F)(F)F)(C(F)(F)F)C(F)(F)F	inactive
COC(=O)[C@H](Cc1ccccc1)NC(=O)CCCCCCC(=O)NO	inactive
O=c1c2c3c(sc2nc(CN2CCNCC2)n1-c1ccccc1)CCCC3	inactive
CCn1c(-c2ccc(OC)cc2)nc2c1C(=O)c1ccccc1C2=O	inactive
COC12C(COC(=O)NCCO)C3=C(C(=O)C(C)=C(N)C3=O)N1CC1NC12 (stereo not drawn)	inactive
CN(C)c1n/c(=N/c2ccc(/N=c3\nc(N(C)C)ss3)cc2)ss1	inactive
CC(=O)NC(CO)C(=O)NC(Cc1ccc(O)cc1)C(=O)NCC(N)=O (stereo not drawn) (Ac-Ser-Tyr-Gly-NH2; configuration not given here)	inactive
CC(C)OP(=O)(OC(C)C)C(C)(C)O	inactive
O=[N+]([O-])c1cc([N+](=O)[O-])c(Nn2c3ccccc3c3ccccc32)c([N+](=O)[O-])c1	active
COc1cc(OC)c(/C=C\c2ccnc3ccccc23)c(OC)c1	active
COc1ccc2c(c1)CCc1c-2n(CCN2CCCCC2)c2ccc(OC)cc12	inactive
C=CCN1C(=O)/C(=C/c2cccs2)N=C1SC/C=C/C	inactive
COC(=O)CCC1=NCC(C)(C)O1	inactive
Oc1cc(-c2cccc(OCc3ccccc3)c2)nc2cc3c(cc12)OCO3	active
CCN(CC)CCN1CCN=c2c3cc(OC)ccc3n3cnc4ccc1c2c43	active
COc1ccc2c(-c3ccc(O)cc3)c(Oc3ccccc3)c(=O)oc2c1	inactive
COC(=O)C1=CON2C3CC4CC(C3)CC(C4)C12C (stereo not drawn)	inactive
CC(=O)O[C@@]12CO[C@@H]1C[C@@H](O)[C@@]1(C)C(=O)[C@H](O)C3=C(C)[C@@H](OC(=O)[C@H](O)[C@@H](NC(=O)c4ccccc4)c4ccccc4)C[C@@](O)([C@@H](OC(=O)c4ccccc4)C12)C3(C)C (stereo partly drawn)	active
Cn1c2ccccc2n2c3ncccc3/c(=N/CCCC(=O)O)c(C#N)c12	inactive
CN(C(=O)c1ccco1)C(=S)N1CCN(c2ccccc2)CC1	inactive
COc1ccc(CCCC(=O)O)c(C)c1	inactive
NC(CCCCNC(=O)CNC(=O)OCc1ccccc1)C(=O)NC(CCCCNC(=O)CNC(=O)OCc1ccccc1)C(=O)NC(CCCCNC(=O)CNC(=O)OCc1ccccc1)C(=O)NC(CCCCNC(=O)CNC(=O)OCc1ccccc1)C(=O)NC(CCCCNC(=O)CNC(=O)OCc1ccccc1)C(=O)NC(CCCCNC(=O)CNC(=O)OCc1ccccc1)C(=O)O (stereo not drawn)	inactive
NCCc1ccc2oc3cc(=O)c4ccccc4c-3nc2c1	inactive
CC(C)c1cc(C(C)C)c(S(=O)(=O)NN)c(C(C)C)c1	inactive
COc1ccc(C(=O)C(CC2C(=O)NC(=O)NC2=O)c2ccc(OC)cc2)cc1 (stereo not drawn)	inactive
